target-or-system: EGFR (human)
assay-setup: huvec
# strict inequality: IC50 < 500 nM yields met, everything else yields not met

Look over these answered cases.
structure-smiles-string	target-or-system	answer-label
Cc1ccc(Nc2ncnn3ccc(C)c23)cc1O	EGFR (human)	met
Cc1ccc(Nc2ncnn3c(C)ccc23)cc1O	EGFR (human)	met
Fc1ccc(Nc2ncnn3cccc23)cc1Cl	EGFR (human)	met
Cc1ccc2c(Nc3ccc(F)c(Cl)c3)ncnn12	EGFR (human)	not met

Exercise: Strictly below 500 nM in IC50? Cc1ccn2ncnc(Nc3ccc(F)c(Cl)c3)c12
Solution: not met

* * *

target-or-system: EGFR (human) (UniProt P00533)
Sequence (P00533 whole entry, looked up): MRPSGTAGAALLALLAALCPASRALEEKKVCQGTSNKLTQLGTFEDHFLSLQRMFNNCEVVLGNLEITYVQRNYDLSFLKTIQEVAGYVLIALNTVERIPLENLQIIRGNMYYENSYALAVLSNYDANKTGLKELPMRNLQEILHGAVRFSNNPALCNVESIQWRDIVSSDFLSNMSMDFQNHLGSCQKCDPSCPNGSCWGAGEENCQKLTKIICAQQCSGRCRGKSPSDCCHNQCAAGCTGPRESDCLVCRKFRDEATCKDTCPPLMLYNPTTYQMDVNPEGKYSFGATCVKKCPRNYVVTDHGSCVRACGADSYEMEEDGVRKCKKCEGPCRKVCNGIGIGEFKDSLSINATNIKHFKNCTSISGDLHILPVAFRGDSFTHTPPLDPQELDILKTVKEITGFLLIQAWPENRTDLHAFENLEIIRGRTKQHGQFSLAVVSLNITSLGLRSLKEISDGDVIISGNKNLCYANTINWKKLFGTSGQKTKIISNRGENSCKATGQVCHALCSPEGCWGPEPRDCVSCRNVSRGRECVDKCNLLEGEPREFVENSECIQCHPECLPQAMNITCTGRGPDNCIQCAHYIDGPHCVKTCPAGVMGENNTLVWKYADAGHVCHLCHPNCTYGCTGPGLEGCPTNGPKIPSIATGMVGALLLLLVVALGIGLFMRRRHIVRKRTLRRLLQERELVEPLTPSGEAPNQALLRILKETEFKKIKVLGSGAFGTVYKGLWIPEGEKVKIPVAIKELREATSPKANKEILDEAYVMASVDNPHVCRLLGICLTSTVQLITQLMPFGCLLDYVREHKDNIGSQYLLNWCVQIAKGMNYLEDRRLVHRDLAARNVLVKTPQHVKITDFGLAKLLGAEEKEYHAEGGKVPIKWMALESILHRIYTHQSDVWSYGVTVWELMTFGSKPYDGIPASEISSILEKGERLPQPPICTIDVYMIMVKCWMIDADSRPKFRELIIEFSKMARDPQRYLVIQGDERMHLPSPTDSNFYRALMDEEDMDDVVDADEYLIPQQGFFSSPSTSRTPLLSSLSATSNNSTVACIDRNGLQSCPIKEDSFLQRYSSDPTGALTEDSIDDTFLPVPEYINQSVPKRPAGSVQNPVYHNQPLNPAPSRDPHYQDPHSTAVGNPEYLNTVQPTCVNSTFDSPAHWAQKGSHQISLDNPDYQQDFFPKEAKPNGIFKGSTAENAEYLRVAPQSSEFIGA
assay-comment: Assessment of DiFi Cell Growth Inhibition by MTS Assay
Listing of entries alongside the reported IC50.

Some solved cases for reference:
structure-smiles-string	target-or-system	quantity-name	reported-value
Cc1ccc(Nc2ncnn3c(C)ccc23)cc1O	EGFR (human) (UniProt P00533)	IC50	> 10 µM
Cc1cc2c(Nc3ccc(C)c(O)c3)ncnn2c1	EGFR (human) (UniProt P00533)	IC50	> 10 µM
Cc1ccc(Nc2ncnn3cccc23)cc1O	EGFR (human) (UniProt P00533)	IC50	> 10 µM
Fc1ccc(Nc2ncnn3cccc23)cc1Cl	EGFR (human) (UniProt P00533)	IC50	1.84 µM

Please fill in: IC50 reported for Cc1ccc(Nc2ncnn3cc(C)c(C)c23)cc1O = > 10 µM

Value of measured IC50 for the entry Cc1ccn2ncnc(Nc3ccc(F)c(Cl)c3)c12 : 3.06 µM

Per the records, this molecule ( Cc1ccc2c(Nc3ccc(F)c(Cl)c3)ncnn12 ) has IC50 equal to > 10 µM

Just so you know, measured IC50 for Cc1ccc(Nc2ncnn3ccc(C)c23)cc1O came out at > 10 µM

Reported IC50 ( Cc1cc2c(Nc3ccc(F)c(Cl)c3)ncnn2c1 ) = 1.6 µM
